# credit: patent US8299048B2

# GITAR > GRAMM % SEP values compiled below
- Assayed target: human GR (Homo sapiens, UniProt P04150)
- Sequence (P04150 whole entry): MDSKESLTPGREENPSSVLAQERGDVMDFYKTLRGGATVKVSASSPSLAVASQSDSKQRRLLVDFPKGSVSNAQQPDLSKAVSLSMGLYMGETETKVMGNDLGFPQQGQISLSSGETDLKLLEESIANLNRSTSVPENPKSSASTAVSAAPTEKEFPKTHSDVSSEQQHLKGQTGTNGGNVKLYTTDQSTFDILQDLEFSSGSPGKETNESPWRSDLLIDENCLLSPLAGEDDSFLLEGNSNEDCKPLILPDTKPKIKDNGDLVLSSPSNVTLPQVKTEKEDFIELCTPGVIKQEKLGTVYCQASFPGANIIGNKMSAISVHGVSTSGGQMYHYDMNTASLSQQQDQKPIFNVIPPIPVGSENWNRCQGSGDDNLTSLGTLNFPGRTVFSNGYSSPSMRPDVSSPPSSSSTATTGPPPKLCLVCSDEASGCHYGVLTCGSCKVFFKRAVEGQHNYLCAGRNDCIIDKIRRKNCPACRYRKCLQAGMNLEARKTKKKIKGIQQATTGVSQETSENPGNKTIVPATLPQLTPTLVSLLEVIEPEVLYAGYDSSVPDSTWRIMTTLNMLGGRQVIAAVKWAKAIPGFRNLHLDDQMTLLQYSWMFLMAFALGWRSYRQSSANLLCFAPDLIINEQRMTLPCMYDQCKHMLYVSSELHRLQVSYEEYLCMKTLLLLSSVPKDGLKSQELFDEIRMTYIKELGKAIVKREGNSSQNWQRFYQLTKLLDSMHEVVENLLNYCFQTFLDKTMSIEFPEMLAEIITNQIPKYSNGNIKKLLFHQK
- Test description: Transrepression Assay (GITAR), TNFα-β-lactamase reporter in U937 cells
- Format: cell-based
- Parameters: U937 cells contain an endogenous glucocorticoid receptor (GR); endogenous in cells; host or cells: U937 cells stably transfected with the TNF-alpha promoter/beta-lactamase reporter
- Test context: GITAR Emax minus GRAMMER Emax

Compound	GITAR > GRAMM % SEP / %
C[C@H](O)CN(C[C@H]1CCC2=Cc3c(cnn3-c3ccc(F)cc3)C[C@@]21C)S(=O)(=O)CC(F)(F)F	8.7
CN1CCOc2cc(S(=O)(=O)N(CC#N)C[C@H]3CCC4=Cc5c(cnn5-c5ccc(F)cc5)C[C@@]43C)ccc21	15.5
C[C@]12Cc3cnn(-c4ccc(F)cc4)c3C=C1CC[C@@H]2CN(CCO)S(=O)(=O)c1ccc(-c2cnco2)s1	21.0
COC(=O)c1ccccc1S(=O)(=O)N(CC1CC1)C[C@H]1CCC2=Cc3c(cnn3-c3ccc(F)cc3)C[C@@]21C	15.3
C[C@]12Cc3cnn(-c4ccc(F)cc4)c3C=C1CC[C@@H]2CN(CCO)S(=O)(=O)c1ccccc1-c1ccccc1	66.3
C[C@]12Cc3cnn(-c4ccc(F)cc4)c3C=C1CC[C@@H]2CN(CCO)S(=O)(=O)c1ccc(Oc2ccccn2)cc1	9.9
COc1ccccc1CCN(C[C@H]1CCC2=Cc3c(cnn3-c3ccc(F)cc3)C[C@@]21C)S(=O)(=O)CC(F)(F)F	18.2
C[C@]12Cc3cnn(-c4ccc(F)cc4)c3C=C1CC[C@@H]2CN(CCO)S(=O)(=O)c1cccc(Cl)c1Cl	25.5
C[C@]12Cc3cnn(-c4ccc(F)cc4)c3C=C1CC[C@@H]2CN(CC#N)S(=O)(=O)c1cccc(C#N)c1	49.5
COC(=O)c1sccc1S(=O)(=O)N(CC#N)C[C@H]1CCC2=Cc3c(cnn3-c3ccc(F)cc3)C[C@@]21C	8.9
C[C@]12Cc3cnn(-c4ccc(F)cc4)c3C=C1CC[C@@H]2CN(CCc1ccccc1F)S(=O)(=O)Cc1cccnc1	1.3
Cc1noc(C)c1S(=O)(=O)N(CCc1ccccc1O)C[C@H]1CCC2=Cc3c(cnn3-c3ccc(F)cc3)C[C@@]21C	25.4
C[C@]12Cc3cnn(-c4ccc(F)cc4)c3C=C1CC[C@@H]2CN(CCc1ccccc1O)S(=O)(=O)Cc1cccc(C(F)(F)F)c1	30.8
COC(=O)c1ccccc1CS(=O)(=O)N(C[C@H]1CCC2=Cc3c(cnn3-c3ccc(F)cc3)C[C@@]21C)C[C@H](C)O	24.7
C[C@]12Cc3cnn(-c4ccc(F)cc4)c3C=C1CC[C@@H]2CN(CC#N)S(=O)(=O)Cc1cccc(C(F)(F)F)c1	16.4
COC(=O)c1ccccc1S(=O)(=O)N(C[C@H]1CCC2=Cc3c(cnn3-c3ccc(F)cc3)C[C@@]21C)C[C@H](C)O	35.6
C[C@]12Cc3cnn(-c4ccc(F)cc4)c3C=C1CC[C@@H]2CN(CCO)S(=O)(=O)c1ccc(Oc2cccc(Cl)c2C#N)cc1	22.2
C[C@]12Cc3cnn(-c4ccc(F)cc4)c3C=C1CC[C@@H]2CN(CC1CC1)S(=O)(=O)/C=C/c1ccccc1	7.8
C[C@]12Cc3cnn(-c4ccc(F)cc4)c3C=C1CC[C@@H]2CN(CCO)S(=O)(=O)c1cc(C(F)(F)F)ccc1Cl	64.0
C[C@]12Cc3cnn(-c4ccc(F)cc4)c3C=C1CC[C@@H]2CN(CCc1ccccc1F)S(=O)(=O)Cc1ccccc1C(N)=O	12.4
C[C@]12Cc3cnn(-c4ccc(F)cc4)c3C=C1CC[C@@H]2CN(CC#N)S(=O)(=O)Cc1ccccc1	15.7
C[C@]12Cc3cnn(-c4ccc(F)cc4)c3C=C1CC[C@@H]2CN(CC1CC1)S(=O)(=O)c1ccccc1Cl [Example 12]	29.8
C[C@]12Cc3cnn(-c4ccc(F)cc4)c3C=C1CC[C@@H]2CN(CC1(O)CC1)S(=O)(=O)c1ccccc1F	28.4
C[C@]12Cc3cnn(-c4ccc(F)cc4)c3C=C1CC[C@@H]2CN(CCc1ccncc1)S(=O)(=O)CC(F)(F)F	11.9
C[C@]12Cc3cnn(-c4ccc(F)cc4)c3C=C1CC[C@@H]2CN(CC(O)c1ccncc1)S(=O)(=O)CC(F)(F)F (stereo partly drawn)	18.1
C[C@]12Cc3cnn(-c4ccc(F)cc4)c3C=C1CC[C@@H]2CN(CC1CCCO1)S(=O)(=O)Cc1cccc(C(F)(F)F)c1 (stereo partly drawn)	21.3
C[C@]12Cc3cnn(-c4ccc(F)cc4)c3C=C1CC[C@@H]2CN(CC#N)S(=O)(=O)c1ccccc1C(F)(F)F	23.1
